# pIC50 values compiled below
# target.desc: Secreted effector protein (Yersinia pestis, UniProt O68720)
# Sequence (O68720 whole entry): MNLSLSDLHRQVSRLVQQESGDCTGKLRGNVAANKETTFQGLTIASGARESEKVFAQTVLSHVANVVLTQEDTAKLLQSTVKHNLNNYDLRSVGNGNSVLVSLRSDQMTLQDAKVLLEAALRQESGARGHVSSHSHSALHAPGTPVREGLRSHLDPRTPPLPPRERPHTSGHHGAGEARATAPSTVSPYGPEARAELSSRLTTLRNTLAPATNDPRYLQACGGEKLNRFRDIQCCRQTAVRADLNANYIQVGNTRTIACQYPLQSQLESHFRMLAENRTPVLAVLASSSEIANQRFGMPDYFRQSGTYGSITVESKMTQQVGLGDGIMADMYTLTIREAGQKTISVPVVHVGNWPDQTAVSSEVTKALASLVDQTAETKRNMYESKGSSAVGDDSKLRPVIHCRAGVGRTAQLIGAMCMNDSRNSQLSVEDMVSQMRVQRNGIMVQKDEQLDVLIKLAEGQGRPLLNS
# assay: Inhibitory concentration against Yersinia pestis YopH expressed in Escherichia coli BL21 cells
In plain terms, pIC50 is the concentration in mol/L turned into minus its base-10 logarithm.

{"chem.smiles": "Cc1ccc2c(c1)CCN2CCC(=O)N[C@@H](CCC(=O)OCc1ccccc1)C(=O)N[C@@H](Cc1ccc(OCC(=O)O)cc1)C(=O)C[C@@H](CC(C)C)C(N)=O", "pIC50": 5.25}
{"chem.smiles": "CC(C)C[C@H](NC(=O)[C@H](Cc1ccc(OCC(=O)O)cc1)NC(=O)C(CNC(=O)OCc1ccccc1)CNC(=O)OCc1ccccc1)C(N)=O", "pIC50": 5.40}
{"chem.smiles": "CC(C)C[C@H](CC(=O)[C@H](Cc1ccc(OC(F)(F)C(=O)O)cc1)NC(=O)[C@H](CCC(=O)OCc1ccccc1)NC(=O)OCC1c2ccccc2-c2ccccc21)C(N)=O", "pIC50": 5.72}
{"chem.smiles": "CC(C)C[C@H](CC(=O)[C@H](Cc1ccc(OCC(=O)O)cc1)NC(=O)[C@H](CCC(=O)OCc1ccccc1)NC(=O)OCC1c2ccccc2-c2ccccc21)C(N)=O", "pIC50": 5.74}
{"chem.smiles": "CC(C)C[C@H](CC(=O)[C@H](Cc1ccc(C(F)(F)C(=O)O)cc1)NC(=O)[C@H](CCC(=O)OCc1ccccc1)NC(=O)OCC1c2ccccc2-c2ccccc21)C(N)=O", "pIC50": 5.60}

Record CC(C)C[C@H](CC(=O)[C@H](Cc1ccc(OCC(=O)O)cc1)NC(=O)[C@H](CCC(=O)OCc1ccccc1)NC(=O)CCc1c2ccccc2cc2ccccc12)C(N)=O : what is its pIC50 with Secreted effector protein (Yersinia pestis, UniProt O68720)?
4.92

Also, CC(C)C[C@H](CC(=O)[C@H](Cc1ccc(OCC(=O)O)cc1)NC(=O)[C@H](CCC(=O)OCc1ccccc1)NC(=O)COc1cccc2ccccc12)C(N)=O please.
4.70

###

# target.desc: Secreted effector protein (Yersinia pestis, UniProt O68720)
# assay: Inhibitory concentration against Yersinia pestis YopH expressed in Escherichia coli BL21 cells
observed.property: IC50 (µM)
Numbers only here, please. The scale is µM.

{"chem.smiles": "CC(C)C[C@H](CC(=O)[C@H](Cc1ccc(OCC(=O)O)cc1)NC(=O)[C@H](CCC(=O)OCc1ccccc1)NC(=O)COc1ccc2ccccc2c1)C(N)=O", "observed.property": "IC50", "unit.info": "µM", "reading": 30}
{"chem.smiles": "CC(C)C[C@H](CC(=O)[C@H](Cc1ccc(OCC(=O)O)cc1)NC(=O)[C@H](CNC(=O)OCc1ccccc1)NC(=O)OCC1c2ccccc2-c2ccccc21)C(N)=O", "observed.property": "IC50", "unit.info": "µM", "reading": 2.1}
{"chem.smiles": "CC(C)C[C@H](CC(=O)[C@H](Cc1ccc(OCC(=O)O)cc1)NC(=O)[C@H](CCC(=O)OCc1ccccc1)NC(=O)CCc1cccc2ccccc12)C(N)=O", "observed.property": "IC50", "unit.info": "µM", "reading": 18}
{"chem.smiles": "CC(C)C[C@H](CC(=O)[C@H](Cc1ccc(OCC(=O)O)cc1)NC(=O)[C@H](CCC(=O)OCc1ccccc1)NS(=O)(=O)CCc1cccc2ccccc12)C(N)=O", "observed.property": "IC50", "unit.info": "µM", "reading": 22}

Then there is this compound:
I have this compound here, CC(C)C[C@H](CC(=O)[C@H](Cc1ccc(CC(=O)O)cc1)NC(=O)[C@H](CCC(=O)OCc1ccccc1)NC(=O)OCC1c2ccccc2-c2ccccc21)C(N)=O , and I need its recorded IC50.
2.4
